assayedTarget: cAMP and cAMP-inhibited cGMP 3',5'-cyclic phosphodiesterase 10A (Homo sapiens, UniProt Q9Y233)
pIC50: −log10 of the molar value.
readout: pIC50

O=C(Nc1cc(-c2ccccn2)nn1C1CCOCC1)c1nc(C2CC2)ccc1Nc1cncnc1 [Roche-Dataset for PDE10A, Compound 24]: 8.85

1. CN1CCC(n2nc(-c3ccccn3)cc2NC(=O)c2nc(C3CC3)ccc2Nc2cncnc2)CC1 [US8470820, 43]
2. O=C(NCCc1cnc(-c2ccccc2)[nH]1)c1nc(C2CC2)ccc1Nc1cncnc1 [Roche-Dataset for PDE10A, Compound 102]
Just curious, which one has the larger pIC50 reading, 1 or 2 ? // return label of chosen record
2

====

assayedTarget: cAMP and cAMP-inhibited cGMP 3',5'-cyclic phosphodiesterase 10A (Homo sapiens, UniProt Q9Y233)
pIC50: −log10 of the molar value.
readout: pIC50

Consider the worked cases shown below.
Cc1nnc2c(C(=O)NCCc3nc(-c4ccccc4)cn3C)cccn12 [Roche-Dataset for PDE10A, Compound 166]: 7.02
Cc1ccc(Nc2cncnc2)c(C(=O)Nc2ccn([C@]34C[C@H]5C[C@H](C[C@H](C5)C3)C4)n2)n1 [Roche-Dataset for PDE10A, Compound 610]: 7.28

1. CCCn1ccc(NC(=O)c2nc(C3CC3)ccc2Nc2cncnc2)n1 [Roche-Dataset for PDE10A, Compound 643]
2. Cn1ncc(C(=O)N2CCC2)c1C(=O)Nc1ccn2nc(-c3cccc(OCCF)c3)nc2c1 [Roche-Dataset for PDE10A, Compound 76]
3. CN1C(=O)c2ccc(NC(=O)c3nc(C4CC4)ccc3Nc3cncnc3)cc2C1=O [Roche-Dataset for PDE10A, Compound 849]
Provide the items ranked by increasing pIC50. Reply format: the labels, ordered as requested.
3, 1, 2
(3: 7.32, 1: 7.85, 2: 9.05)

====

assayedTarget: cAMP and cAMP-inhibited cGMP 3',5'-cyclic phosphodiesterase 10A (Homo sapiens, UniProt Q9Y233)
experimentNotes: PDE10A assay
pIC50: −log10 of the molar value.
readout: pIC50

CN(c1nc2cc(NC(=O)c3c(C(=O)N4CCOCC4)cnn3C)ccn2n1)C1CC1 [Roche-Dataset for PDE10A, Compound 418]: 8.58
O=C(Nc1ccn2nc(-c3ccccc3)nc2c1)c1onc2ccc(Br)cc12 [Roche-Dataset for PDE10A, Compound 592]: 8.00
Cn1cc(-c2ccccc2)nc1CCc1ncoc1-c1ccccc1 [Roche-Dataset for PDE10A, Compound 361]: 6.00
O=C(NC1CCN(c2ccccn2)CC1)c1nc(C2CC2)ccc1Nc1cncnc1 [Roche-Dataset for PDE10A, Compound 1045]: 6.71

a. COc1ccccc1-c1nc2cc(NC(=O)c3c(C(=O)N4CCC4)cnn3C)ccn2n1 [Roche-Dataset for PDE10A, Compound 120]
b. O=C1c2ccccc2C(=O)N1CCc1csc(-c2cccnc2)n1 [Roche-Dataset for PDE10A, Compound 292]
c. CN(C)c1nc2cc(NC(=O)c3c(C(=O)N4CCC4)cnn3C)ccn2n1 [Roche-Dataset for PDE10A, Compound 520]
Hey, quick one: sort these by pIC50, largest value first please. Reply format: the labels, ordered as requested.
a, c, b

====

assayedTarget: UniProtKB Q9Y233
pIC50: −log10 of the molar value.
readout: pIC50

O=C(Nc1cnn(Cc2ccccc2)c1)c1nc(C2CC2)ccc1Nc1cncnc1 [Roche-Dataset for PDE10A, Compound 614]: 7.16
Cc1ncc(C)n2nc(/C=C/c3ncn(-c4ccccc4)n3)nc12 [Roche-Dataset for PDE10A, Compound 629]: 6.79

I. CNC(=O)c1c(NC(=O)c2nc(C3CC3)cnc2Nc2cncnc2)cnn1CCC(F)(F)F [US8703768, 173]
II. O=C(NCc1ccc2nccnc2c1)c1nc(C2CC2)cnc1Nc1cncnc1 [Roche-Dataset for PDE10A, Compound 699]
Just curious, which one has the larger pIC50 reading, I or II ? // return label of chosen record
I
(I: 7.72, II: 6.85)
